test: Aqueous solubility of the compound; type: physicochemical; details: aqueous; read-out: solubility
observable: solubility

| chemicalSmiles | measuredResult |
| --- | --- |
| CC(C)n1c(=O)n(-c2ccc(C#N)c(C(F)(F)F)c2)c2ccccc21 | 9.3 µM |
| N#Cc1ncc(-n2c(=O)n(Cc3ccccc3)c3ccccc32)cc1C(F)(F)F | 5.3 µM |

What value of solubility has been reported for the following compound? `N#Cc1ccc(-n2c(=O)n(Cc3cccnc3)c3ccccc32)cc1C(F)(F)F` 2.5 µM

What value of solubility has been reported for the following compound? `N#Cc1ccc(-n2c(=O)n(Cc3ccccc3)c3ccccc32)cc1C(F)(F)F` < 0.16 µM

What value of solubility has been reported for the following compound? `COc1cc(N2C(=O)C(C)(C)c3cc(-c4cccnc4OC)ccc32)ccc1C#N` 9.8 µM

What value of solubility has been reported for the following compound? `N#CCn1c(=O)n(-c2ccc(C#N)c(C(F)(F)F)c2)c2ccccc21` 18.9 µM

What value of solubility has been reported for the following compound? `CCn1c(=O)n(-c2ccc(C#N)c(C(F)(F)F)c2)c2ccccc21` 3.47 µM

What value of solubility has been reported for the following compound? `N#Cc1ncc(-n2c(=O)n(Cc3ccccc3)c3cccnc32)cc1C(F)(F)F` 1.7 µM

What value of solubility has been reported for the following compound? `CNC(=O)c1ccc(-c2ccc3c(c2)C(C)(C)C(=O)N3c2ccc(C#N)c(C(F)(F)F)c2)cc1F` 6.25 µM

What value of solubility has been reported for the following compound? `CNC(=O)c1ccc(-n2c(=O)n(-c3ccc(C#N)c(C(F)(F)F)c3)c3ccccc32)cc1F` 8.81 µM

* * *

Biological target: UniProt P10275
Sequence (whole entry): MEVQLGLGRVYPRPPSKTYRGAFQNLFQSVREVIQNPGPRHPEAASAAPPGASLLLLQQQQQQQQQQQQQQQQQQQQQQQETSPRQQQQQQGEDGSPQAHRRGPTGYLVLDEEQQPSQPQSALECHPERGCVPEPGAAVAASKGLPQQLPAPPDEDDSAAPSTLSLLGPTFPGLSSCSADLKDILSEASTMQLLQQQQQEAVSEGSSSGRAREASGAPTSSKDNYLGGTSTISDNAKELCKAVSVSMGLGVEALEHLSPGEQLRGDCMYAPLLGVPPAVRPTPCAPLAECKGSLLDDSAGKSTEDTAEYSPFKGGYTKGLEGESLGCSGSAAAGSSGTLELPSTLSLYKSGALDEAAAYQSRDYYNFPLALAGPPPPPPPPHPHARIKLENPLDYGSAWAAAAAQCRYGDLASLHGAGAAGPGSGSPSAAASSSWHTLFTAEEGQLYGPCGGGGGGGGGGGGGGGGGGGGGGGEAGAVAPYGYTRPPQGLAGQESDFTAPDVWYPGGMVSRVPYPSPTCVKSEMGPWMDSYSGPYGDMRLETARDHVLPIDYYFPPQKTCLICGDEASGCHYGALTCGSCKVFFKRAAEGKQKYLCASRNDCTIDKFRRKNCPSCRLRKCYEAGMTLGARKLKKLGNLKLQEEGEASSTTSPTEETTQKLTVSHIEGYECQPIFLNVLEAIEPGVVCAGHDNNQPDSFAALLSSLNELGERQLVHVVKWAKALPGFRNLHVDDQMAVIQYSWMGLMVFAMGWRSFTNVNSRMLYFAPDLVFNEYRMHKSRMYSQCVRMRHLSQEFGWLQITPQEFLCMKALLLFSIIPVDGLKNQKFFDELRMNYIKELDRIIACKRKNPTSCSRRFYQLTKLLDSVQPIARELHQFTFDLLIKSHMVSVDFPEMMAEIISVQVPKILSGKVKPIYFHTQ
Experiment: Antagonist activity at androgen receptor in human LNAR cells expressing ARE-PSA-LUC at 1 uM by luminescence analysis in presence of R1881
Assay type: functional, cell-based
The threshold is inclusive: inhibition of exactly 70% counts as true; values below receive false.

Item `CNC(=O)c1ccc(Cn2c(=O)n(-c3ccc(C#N)c(C(F)(F)F)c3)c3ccccc32)cc1F` with inhibition of 70% or above? true

Item `N#CCn1c(=O)n(-c2ccc(C#N)c(C(F)(F)F)c2)c2ccccc21` with inhibition of 70% or above? true

Item `CC1(C)C(=O)N(c2ccc(C#N)c(C(F)(F)F)c2)c2ccccc21` with inhibition of 70% or above? true

Item `Cc1ccc(-n2c(=O)n(-c3ccc(C#N)c(C(F)(F)F)c3)c3ccccc32)cc1` with inhibition of 70% or above? false
